Item-by-item account of Enzyme Activity Endpoint Assay (purified): Fc
# subject of test: pooled human IgG
value kind: Enzyme Activity Endpoint Assay (purified): Fc (ng/µL)

>>> reported_result("PRT-73 (protein) MANQEIRYSEVTPYHVTSVWTKGVTPPANFTQGEDVFHAPYVANQGWYDITKTFNGKDDLLCGAATAGNMLHWWFDQNKEKIEAYLKKHPEKQKIMFGDQELLDVRKVINTKDDQTNSELFNYFRDKAFPGLSARRLGVMPDLVLDMFINGYYLNVTKTQTTDVNRTYQEKDRRGGIFDAVFTRGDQSKLLTSRHDFKEKNLKEISDLIKKELTEGKALGLSHTYANVRINHVINLWGADFDSNGNLKAIYVTDSDSNASIGMKKYFVGVNSAGKVAISAKEIKEDNIGAQVLGLFTLSTGQDSWNQTN")
105
>>> reported_result("PRT-232 (protein) MEVVEVWPYGQNPNGKTEILSQTEDSESLQRLRDIEDFQAEKKMQNVVYTKWLDGVDVKDHDFRKIVDGNIAYYATPLLNGRGFYDINKDFNRDSDKCAAAVAANMFHYWLDINRDNVDRFLRQNPEKHGIIELPDGQLKLSDFLNTYESDHGYRDKSKLFDFISNNFNGPVWTDKLLDNYINGYAYNYKYGRTIEDPTKNTSKINFFKEVFNEKILTNNHSIRNQNEFSVLLSEALYTGKAIGLSYGPAGLRHSLGHIISVWGADLDADGNVVAIYVTDSDDKKLTIGDERVGLKRYKISTDDENRLRLTAYEETHNTGGQIRGLWTLDTGKEAWADYFDKTEQTGTDQAEQLEHHHHHH")
283
>>> reported_result("IdeZ2 (protein) EVVEVWPYGQNPNGKTEILSQTEDSESLQRLRDIEDFQAEKKMQNVVYTKWLDGVDVKDHDFRKIVDGNIAYYATPLLNGRGFYDINKDFNRDSDKCAAAVAANMFHYWLDINRDNVDRFLRQNPEKHGIIELPDGQLKLSDFLNTYESDHGYRDKSKLFDFISNNFNGPVWTDKLLDNYINGYAYNYKYGRTIEDPTKNTSKINFFKEVFNEKILTNNHSIRNQNEFSVLLSEALYTGKAIGLSYGPAGLRHSLGHIISVWGADLDADGNVVAIYVTDSDDKKLTIGDERVGLKRYKISTDDENRLRLTAYEETHNTGGQIRGLWTLDTGKYAWADYFDKTEQTGTDQAEQ")
566
>>> reported_result("PRT-135 (protein) MRNATEAYAKEVPHQITSVWTKGVTPLTPEQFRYNNEDVIHAPYLAHQGWYDITKAFDGKDNLLCGAATAGNMLHWWFDQNKTEIEAYLSKHPEKQKIIFNNQELFDLKAAIDTKDSQTNSQLFNYFRDKAFPNLSARQLGVMPDLVLDMFINGYYLNVFKTQSTDVNRPYQDKDKRGGIFDAVFTRGDQTTLLTARHDLKNKGLNDISTIIKQELTEGKALALSHTYANVSISHVINLWGADFNAEGNLEAIYVTDSDANASIGMKKYFVGINAHGHVAISAKKIEGENIGAQVLGLFTLSSGKDIWQKLS")
140

Values were extracted from patent US20250027068.
